The reported measurements were obtained from the supplement of paper PMC11061612.

- System: WSU-DLCL2 (B-Cell Non-Hodgkin's Lymphoma)
- protocol: combination Emax (second highest fraction inhibited in the dose matrix, 72 h); higher = more inhibition; extreme values may be limits of the assay

compound | combination Emax
CCN(CCO)CCCOc1ccc2c(Nc3cc(CC(=O)Nc4cccc(F)c4)[nH]n3)ncnc2c1 [AZD2811] + C=CCn1c(=O)c2cnc(Nc3ccc(N4CCN(C)CC4)cc3)nc2n1-c1cccc(C(C)(C)O)n1 [AZD1775] (first compound max 1 µM, partner max 1 µM) | 0.937
CC1(C)CCC(CN2CCN(c3ccc(C(=O)NS(=O)(=O)c4ccc(NCC5CCOCC5)c([N+](=O)[O-])c4)c(Oc4cnc5[nH]ccc5c4)c3)CC2)=C(c2ccc(Cl)cc2)C1 [Venetoclax] + CN(C)CCCOc1ccc(-c2ccc3ncc4c(c3c2)n(C2CCOCC2)c(=O)n4C)cn1 [AZD0156] (first compound max 1 µM, 7x7, partner max 1 µM) | 0.33
CC(=O)c1c(C)c2cnc(Nc3ccc(N4CCNCC4)cn3)nc2n(C2CCCC2)c1=O [Palbociclib] + CC1(C)CCC(CN2CCN(c3ccc(C(=O)NS(=O)(=O)c4ccc(NCC5CCOCC5)c([N+](=O)[O-])c4)c(Oc4cnc5[nH]ccc5c4)c3)CC2)=C(c2ccc(Cl)cc2)C1 [Venetoclax] (first compound max 10 µM, 7x7, partner max 1 µM) | 0.98

* * *

- System: FU-OV-1 (Ovarian Carcinoma);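 note: after 72 h of two-drug dosing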
- protocol: Bliss excess, mean over the matrix (fraction); higher = more synergy
attribute-measured: Bliss excess

molecule | target-or-test-system | reported-result
Cn1cnc2c(F)c(Nc3ccc(Br)cc3Cl)c(C(=O)NOCCO)cc21 [Selumetinib] + C=CCn1c(=O)c2cnc(Nc3ccc(N4CCN(C)CC4)cc3)nc2n1-c1cccc(C(C)(C)O)n1 [AZD1775] (first compound max 10 µM, partner max 1 µM) | FU-OV-1 (Ovarian Carcinoma) | -0.015
NC1(C(=O)N[C@@H](CCO)c2ccc(Cl)cc2)CCN(c2ncnc3[nH]ccc23)CC1 [Capivasertib] + Cn1cnc2c(F)c(Nc3ccc(Br)cc3Cl)c(C(=O)NOCCO)cc21 [Selumetinib] (first compound max 10 µM, 7x7, partner max 10 µM) | FU-OV-1 (Ovarian Carcinoma) | -0.0316
Cc1nc(-c2cn3c(n2)-c2ccc(-c4cnn(C(C)(C)C(N)=O)c4)cc2OCC3)n(C(C)C)n1 [Taselisib] + O=C(Nc1ccc2[nH]nc(-c3ccncc3)c2c1)[C@@H]1CCN(CC(=O)N2CCN(c3ccc(-c4ncccn4)cc3)CC2)C1 [SCH772984] (first compound max 10 µM, 7x7, partner max 5 µM) | FU-OV-1 (Ovarian Carcinoma) | -0.0373
CC1(C)CCC(CN2CCN(c3ccc(C(=O)NS(=O)(=O)c4ccc(NCC5CCOCC5)c([N+](=O)[O-])c4)c(Oc4cnc5[nH]ccc5c4)c3)CC2)=C(c2ccc(Cl)cc2)C1 [Venetoclax] + C1CN(CCC1(C(=O)N[C@@H](CCO)C2=CC=C(C=C2)Cl)N)C3=NC=NC4=C3C=CN4 [Capivasertib] (first compound max 1 µM, 7x7, partner max 3 µM) | FU-OV-1 (Ovarian Carcinoma) | -0.0783
COc1nnc2ccc(N3CCC(c4ccc(OCCN5CCN(C)C(=O)[C@H]5C)cc4)CC3)nn12 [AZD5153] + C[C@@H]1COCCN1C2=NC(=NC(=C2)C3(CC3)[S@](=N)(=O)C)C4=C5C=CNC5=NC=C4 [AZD6738] (first compound max 1 µM, 7x7, partner max 10 µM) | FU-OV-1 (Ovarian Carcinoma) | -0.0452
Cc1cc2ncnn2cc1Nc1ncc2c(n1)n(C1CCOCC1)c(=O)n2C [AZD7648] + COc1cc([C@@H]2c3cc4c(cc3[C@@H](O[C@@H]3O[C@@H]5CO[C@@H](C)O[C@H]5[C@H](O)[C@H]3O)[C@H]3COC(=O)[C@H]23)OCO4)cc(OC)c1O [Etoposide] (first compound max 10 µM, 7x7, partner max 10 µM) | FU-OV-1 (Ovarian Carcinoma) | -0.0047
CC1(C)CCC(CN2CCN(c3ccc(C(=O)NS(=O)(=O)c4ccc(NCC5CCOCC5)c([N+](=O)[O-])c4)c(Oc4cnc5[nH]ccc5c4)c3)CC2)=C(c2ccc(Cl)cc2)C1 [Venetoclax] + CCN(CCO)CCCOc1ccc2c(Nc3cc(CC(=O)Nc4cccc(F)c4)[nH]n3)ncnc2c1 [AZD2811] (first compound max 1 µM, 7x7, partner max 1 µM) | FU-OV-1 (Ovarian Carcinoma) | -0.0705
